- experiment.notes: in vivo
- run.parameters: rat, iv, 0.5 mg/kg
endpoint.name: Vd (L/kg)

Known Vd results, listed for orientation:
{"chemical.string": "Cc1c([C@@H](O)CN2CCC3(CC2)CCN(c2ccc(C#N)cn2)C3)ccc2c1COC2=O", "endpoint.unit": "L/kg", "observed.measurement": 4.7}
{"chemical.string": "Cc1c([C@@H](O)CN2CCC3(CC2)CC(=O)N(c2cnc(S(C)(=O)=O)cn2)C3)ccc2c1COC2=O", "endpoint.unit": "L/kg", "observed.measurement": 3.8}
{"chemical.string": "Cc1c([C@@H](O)CN2CCC3(CC2)CCN(c2ccc(S(C)(=O)=O)cn2)C3)ccc2c1COC2=O", "endpoint.unit": "L/kg", "observed.measurement": 3.5}

P = Cc1c([C@@H](O)CN2CCC3(CC2)CCN(c2cnc(S(C)(=O)=O)cn2)C3)ccc2c1COC2=O
Q = Cc1c([C@@H](O)CN2CCC3(CC2)CCN(c2ccc(S(C)(=O)=O)nc2)C3)ccc2c1COC2=O
Between P and Q , which one shows the smaller Vd number? State the label of the item chosen.
Q
(Q: 2.8 L/kg, P: 5.6 L/kg)
